Assay: in vivo
Details: female, athymic nude-Foxn1nu/Foxn1+, mouse, 20 pmol, total radioactivity, Biodistribution Stomach
Where a SMILES comes first, the peptide text is derived from it. Bridges are numbered along the chain shown (N, C = ends). [ ]: non-standard residue; d: D form. The star is where a group is joined. dPhe(4-NHCONH2) = NC(=O)Nc1ccc(C[C@@H](N)C(=O)O)cc1; Phe(4-Cl) = N[C@@H](Cc1ccc(Cl)cc1)C(=O)O; X1 = NCCNCC(CNCCN)C(=O)*
Listed next: entries and their corresponding tissue uptake at 24 h.
Express the result in %ID/g but write the number alone.

C[C@@H](O)[C@@H]1NC(=O)[C@H](CCCCN)NC(=O)[C@@H](Cc2ccc(NC(N)=O)cc2)NC(=O)[C@H](Cc2ccc(O)cc2)NC(=O)[C@H](NC(=O)[C@H](Cc2ccc(Cl)cc2)NC(=O)C(CNCCN)CNCCN)CSSC[C@@H](C(=O)N[C@H](Cc2ccc(O)cc2)C(N)=O)NC1=O [[^99mTc]Tc-TECANT-1, metal not drawn] (X1-[Phe(4-Cl)][dC]Y[dPhe(4-NHCONH2)]KTC[dY]-NH2; disulfide 2-7) ... 1.42

Please find the next compound below.
May I ask what tissue uptake at 24 h has been recorded for C[C@@H](O)[C@@H]1NC(=O)[C@H](CCCCN)NC(=O)[C@@H](Cc2c[nH]c3ccccc23)NC(=O)[C@H](Cc2ccc(O)cc2)NC(=O)[C@H](NC(=O)[C@H](Cc2ccc(Cl)cc2)NC(=O)C(CNCCN)CNCCN)CSSC[C@@H](C(=O)N[C@H](Cc2ccc(O)cc2)C(N)=O)NC1=O [[^99mTc]Tc-TECANT-2, metal not drawn] ?
0.45

----------
Test: in vivo
Settings: female, athymic nude-Foxn1nu/Foxn1+, mouse, 20 pmol, total radioactivity, Biodistribution Kidneys
Where a SMILES comes first, the peptide text is derived from it. Bridges are numbered along the chain shown (N, C = ends). [ ]: non-standard residue; d: D form. The star is where a group is joined. dPhe(4-NHCONH2) = NC(=O)Nc1ccc(C[C@@H](N)C(=O)O)cc1; Phe(4-Cl) = N[C@@H](Cc1ccc(Cl)cc1)C(=O)O; X1 = NCCNCC(CNCCN)C(=O)*
value type: tissue uptake at 24 h (%ID/g)
Express the result in %ID/g but write the number alone.

C[C@@H](O)[C@@H]1NC(=O)[C@H](CCCCN)NC(=O)[C@@H](Cc2ccc(NC(N)=O)cc2)NC(=O)[C@H](Cc2ccc(O)cc2)NC(=O)[C@H](NC(=O)[C@H](Cc2ccc(Cl)cc2)NC(=O)C(CNCCN)CNCCN)CSSC[C@@H](C(=O)N[C@H](Cc2ccc(O)cc2)C(N)=O)NC1=O [[^99mTc]Tc-TECANT-1, metal not drawn] (X1-[Phe(4-Cl)][dC]Y[dPhe(4-NHCONH2)]KTC[dY]-NH2; disulfide 2-7) ... 2.42

May I ask what tissue uptake at 24 h has been recorded for C[C@@H](O)[C@@H]1NC(=O)[C@H](CCCCN)NC(=O)[C@@H](Cc2c[nH]c3ccccc23)NC(=O)[C@H](Cc2ccc(O)cc2)NC(=O)[C@H](NC(=O)[C@H](Cc2ccc(Cl)cc2)NC(=O)C(CNCCN)CNCCN)CSSC[C@@H](C(=O)N[C@H](Cc2ccc(O)cc2)C(N)=O)NC1=O [[^99mTc]Tc-TECANT-2, metal not drawn] ?
3.42

# credit: paper PMC7824897
